# ASSAY INFO: folding stability dG unfold (combined trypsin and chymotrypsin); higher = more stable
Could you please report measured folding stability dG unfold for the items listed next?
Give the quantity in kcal/mol, number only.

Request: Reported folding stability dG unfold for SAGGPVIEVESLEELKKALELLKEGKEVVIRVRVRRTETLPDGRKRVEEREVVYRATVEDGKLTIEPLSAGG [r13_835_TrROS_Hall] : what is it?
Response: 3.56

Request: Same question, SAGGSAGGSDDSPEDAQKQQAKPEIKIKLHIRFPDGKEYDLDEPFEFPINGQPMRISSIDIVYSAGGSAGGS [r12_43_TrROS] this time
Response: 0.823

Request: Same question, SAGGMTIVEKDGKLVLKITVTVPPGTTVEELKNALKELFGVEEVKVVKIEKNENGEITITVEAVFPKSAGGS [r16_234_TrROS_Hall] this time
Response: 3.03

Request: Same question, SAGFSVEVTYNPPTGYLEIRFYNPPPNKPLKKETLEEIARKLLEELGIEGEIVEIKEEGNVYTIKVKIPSAG [r14_556_TrMRF] this time
Response: 4.62

Request: Same question, SAGGSAGGSAGKVVLYLPGDGTAWVLKVGDGEAVLEAEPEKVEELLEKIPGTEAVPVPGLSAGGSAGGSAGG [r11_57_TrMRF] this time
Response: 0.425

Request: Same question, SAGGSAGGSAGGGSMLTVKVPETVPEYTSTDPATGKTYNVPPSVPVEVEGSPDSFSILLSAGGSAGGSAGGS [r10_46_JUSTAS] this time
Response: 1.01

Request: Same question, SAGPPEQKIKIKWYPPDDGQPQEIPGPVDDIKDILDKLGWPVTNIETDPDDNEVEIWVPFPNWWLHIKISAG [r5_521_TrROS] this time
Response: 1.53

Request: Same question, SAGMEAIRKKAEELAKKGKIFKITLTGPDGIPETKILSPEEFKKFLEEFPDPEAIASVEVEAYEPGKPISAG [r5_957_JUSTAS] this time
Response: 3.24

Request: Same question, SAGGSAGGSAGNLKPVSGGGVLKVEVKDPNTDKKETYLVPPNKPDVVLELAKDGYEVEVSSAGGSAGGSAGG [r11_1006_TrMRF] this time
Response: 0.639

Request: Same question, SAGGMEFEFTREDGRKTRVELEVNPETGEVTEKIYVGGKLLYTFKDGELKYIPDEVAAARIEARLPPESAGG [r13_958_TrMRF] this time
Response: 1.45

Request: Same question, SAPIKIEIDVHQPPPGDYMIMVRIRPPGDGKEFPRMFPFPPDDAEKILENLLSQFPGYEIDDIEPMRYPSAG [r14_969_TrROS] this time
Response: 1.29

Request: Same question, SAGGSAGGSAGGVGKDKPVIIKIKIKRKVYGLNTPELIAEEEEEIVVVVHPDVNPEKIKPSAGGSAGGSAGG [r7_591_TrMRF] this time
Response: 1.83
